assay: Tissue distribution of Compound A in mice with mammary C/16 adenocarcinomas (first method: liver, heart, kidney, lung, spleen, tumor); assay type: in vivo, C3H/HeN female mice; conditions: mouse, lung, iv; 40 mg/kg i.v.; read-out: time of maximum concentration, lung
property measured: Tmax (min)

INSERT INTO assay_data (item_smiles, test_result) VALUES
  ('CC(=O)O[C@H]1C(=O)[C@]23C[C@H]2C[C@H]2OC[C@@]2(OC(C)=O)[C@H]3[C@H](OC(=O)c2ccccc2)[C@]2(O)C[C@H](OC(=O)[C@H](O)[C@@H](NC(=O)OC(C)(C)C)c3ccccc3)C(C)=C1C2(C)C', 4.98);

----------
experiment: Brain distribution of Compound A in mice with mammary C/16 adenocarcinomas (second method, brain tissue); assay type: in vivo, C3H/HeN female mice; conditions: mouse, brain, iv, 40 mg/kg, 4 h; 40 μg/kg [sic]; single mice; read-out: Brain CONC.
property measured: concentration at 4 h (ng/g)

INSERT INTO measurements (item_smiles, property_measured, test_result) VALUES
  ('CC(=O)O[C@H]1C(=O)[C@]23C[C@H]2C[C@H]2OC[C@@]2(OC(C)=O)[C@H]3[C@H](OC(=O)c2ccccc2)[C@]2(O)C[C@H](OC(=O)[C@H](O)[C@@H](NC(=O)OC(C)(C)C)c3ccccc3)C(C)=C1C2(C)C', 'concentration at 4 h', 7390);

----------
assay: Plasma kinetics of Compound A after i.v. injection in mice (HPLC); format: in vivo, C3H/HeN female mice; conditions: mouse, plasma, iv; 40 mg/kg i.v.; 2 minutes; read-out: observed maximum plasma concentration
property measured: Cmax at 2 min (µg/mL)

INSERT INTO assay_data (item_smiles, test_result) VALUES
  ('CC(=O)O[C@H]1C(=O)[C@]23C[C@H]2C[C@H]2OC[C@@]2(OC(C)=O)[C@H]3[C@H](OC(=O)c2ccccc2)[C@]2(O)C[C@H](OC(=O)[C@H](O)[C@@H](NC(=O)OC(C)(C)C)c3ccccc3)C(C)=C1C2(C)C', 51);

----------
Assay: Tissue distribution of Compound A in mice with mammary C/16 adenocarcinomas (first method: liver, heart, kidney, lung, spleen, tumor)
Assay type: in vivo, C3H/HeN female mice
Details: mouse, tumor/plasma, iv, dose 9.5; 0.25 h; single mice; read-out: Tumor/Plasma Ratio
Method: Mammary C/16 adenocarcinomas were implanted in C3H/HeN female mice. […] The body weight and date of implantation were recorded for each mouse. […] The plasma and tissue samples were then analyzed for the concentration of Compound A. The plasma was assayed by high pressure liquid chromatography with spectrophotometric detection. For the tissue, liver, heart, kidney, lung, spleen and tumor tissue, samples were assayed by a first method, while a second method was used for the brain tissue analyzed. […]
property measured: Kp at 0.25 h

INSERT INTO measurements (item_smiles, test_result) VALUES
  ('CC(=O)O[C@H]1C(=O)[C@]23C[C@H]2C[C@H]2OC[C@@]2(OC(C)=O)[C@H]3[C@H](OC(=O)c2ccccc2)[C@]2(O)C[C@H](OC(=O)[C@H](O)[C@@H](NC(=O)OC(C)(C)C)c3ccccc3)C(C)=C1C2(C)C', 0.51);

// data source = patent US6156789A
